# EXPERIMENT SUMMARY: Confirmation screen for delayed death inhibitors of the malarial parasite plastid, 48 hour incubation; also: nearly all actives have a fitted effect of over 65% in size
# RECORDED CONDITIONS: P. falciparum-infected erythrocytes, luciferase growth; series mostly up to 28.7 µM
Among all 2,300 compounds or so, about 1,200 (52%) were called active. Another 34% or so got no clear call; they are omitted. Calls follow the shape of the dose curve; as a rule, active = well fitted inhibition curve with a large enough effect; inconclusive = small, poorly fitted or top-dose-only effect, or effect the other way; inactive = no such curve, though single readings can be large or run the other way. The set was probably picked from earlier hits. The list shows a part of the results.
Outcomes: active, inactive

[[record]]
compound = "N=c1c2c(n(Cc3ccc(Cl)c(Cl)c3)c3c1CCC3)CCCC2"
class_assignment = "active"

[[record]]
compound = "COc1ccc(N2CCc3c(C)nc4c(OC)cc(OC)cc4c32)c(OC)c1"
class_assignment = "active"

[[record]]
compound = "O=C(Nc1ccccc1)c1cccc(S(=O)(=O)NCc2ccco2)c1"
class_assignment = "inactive"

[[record]]
compound = "CC(=O)Nc1nc2ccccc2n1Cc1ccc(C)cc1"
class_assignment = "active"

[[record]]
compound = "C/C(=C\\C(=O)OCCCCCCCCC(=O)O)C[C@@H]1OC[C@H](C[C@@H]2O[C@H]2[C@@H](C)[C@H](C)O)[C@@H](O)[C@H]1O"
class_assignment = "active"

[[record]]
compound = "Cc1nnnn1/C(=C\\c1ccccc1)C(=O)OCC(=O)N1CC2(C)CC1CC(C)(C)C2 (stereo unspecified)"
class_assignment = "active"

